test system: Escherichia coli; test: In vitro antibacterial activity against Escherichia coli EC14; type: functional
MEASURED ATTRIBUTE: MIC (µg/mL)

P: CO/N=C(\C(=O)NC1CN2CC(C(=O)OC)=C(C(=O)O)N2C1=O)c1csc(N)n1 (stereo unspecified)
Q: CO/N=C(\C(=O)NC1CN2CC(C#N)=C(C(=O)O)N2C1=O)c1csc(N)n1 (stereo unspecified)
R: CO/N=C(\C(=O)N[C@H]1CN2CC(C#N)=C(C(=O)O)N2C1=O)c1csc(N)n1
// query Sort entries by MIC from minimum to maximum value. Use the labels to give the ranking in the order requested.
// result R, Q, P
(R: 0.25 µg/mL, Q: 0.5 µg/mL, P: 8 µg/mL)

1: CO/N=C(\C(=O)NC1CN2CC(C(C)=O)=C(C(=O)O)N2C1=O)c1csc(N)n1 (stereo unspecified)
2: CCC(=O)C1=C(C(=O)O)N2C(=O)C(NC(=O)/C(=N\OC)c3csc(N)n3)CN2C1 (stereo unspecified)
// query Dear colleague, could you let me know whether 1 or 2 has the lower recorded MIC? Thanks. Let me know the label of the one you choose.
// result 1
(1: 2 µg/mL, 2: 4 µg/mL)

---

system: Staphylococcus aureus; experiment: In vitro antibacterial activity against Staphylococcus aureus X1.1; type: functional
MEASURED ATTRIBUTE: MIC (µg/mL)

# count of solved cases: 5
| MOLECULE | MIC / µg/mL |
| --- | --- |
| CO/N=C(\C(=O)N[C@H]1CN2CC(S(=O)(=O)c3ccccc3)=C(C(=O)O)N2C1=O)c1csc(N)n1 | 32 |
| CCS(=O)(=O)C1=C(C(=O)O)N2C(=O)[C@@H](NC(=O)/C(=N\OC)c3csc(N)n3)CN2C1 | 32 |
| CO/N=C(\C(=O)N[C@H]1CN2CC(C#N)=C(C(=O)O)N2C1=O)c1csc(N)n1 | 64 |
| CO/N=C(\C(=O)NC1CN2CC(C#N)=C(C(=O)O)N2C1=O)c1csc(N)n1 (centres undefined) | 64 |
| CO/N=C(\C(=O)NC1CN2CC(C(C)=O)=C(C(=O)O)N2C1=O)c1csc(N)n1 (centres undefined) | 32 |

A: CO/N=C(\C(=O)NC1CN2CC(C(=O)OCc3ccccc3)=C(C(=O)O)N2C1=O)c1csc(N)n1 (centres undefined)
B: CO/N=C(\C(=O)N[C@H]1CN2CC(S(C)(=O)=O)=C(C(=O)O)N2C1=O)c1csc(N)n1
// query Please state the entry with greater MIC among A and B . Let me know the label of the one you choose.
// result A

---

test system: Escherichia coli; experiment: In vitro antibacterial activity against Escherichia coli EC14; format: functional
MEASURED ATTRIBUTE: MIC (µg/mL)

1: CCCOC(=O)C1=C(C(=O)O)N2C(=O)C(NC(=O)/C(=N\OC)c3csc(N)n3)CN2C1 (stereo not drawn)
2: CO/N=C(\C(=O)N[C@H]1CN2CC(S(C)(=O)=O)=C(C(=O)O)N2C1=O)c1csc(N)n1
3: CO/N=C(\C(=O)NC1CN2CC(C(=O)OCc3ccccc3)=C(C(=O)O)N2C1=O)c1csc(N)n1 (stereo not drawn)
4: CO/N=C(\C(=O)N[C@H]1CN2CC(S(=O)(=O)c3ccccc3)=C(C(=O)O)N2C1=O)c1csc(N)n1
// query Sort entries by MIC from minimum to maximum value. Use the labels to give the ranking in the order requested.
// result 2, 4, 1, 3

1: CCOC(=O)C1=C(C(=O)O)N2C(=O)C(NC(=O)/C(=N\OC)c3csc(N)n3)CN2C1 (stereo not drawn)
2: CO/N=C(\C(=O)NC1CN2CC(S(C)(=O)=O)=C(C(=O)O)N2C1=O)c1csc(N)n1 (stereo not drawn)
// query Dear colleague, could you let me know whether 1 or 2 has the lower recorded MIC? Thanks. Let me know the label of the one you choose.
// result 2
(2: 0.125 µg/mL, 1: 16 µg/mL)
